Observed IC50, system RNA polymerase II Serine 5 phosphorylation (CDK7) in A549 cells.
Measured Property: IC50 (nM)

P: C=CC(=O)N1CC(N2CC(c3cc(C)c4c(c3)Nc3ncnc(-c5cnn(C)c5)c3[C@@H](C)O4)C2)C1 (single isomer, unassigned) [compound 109]
Q: C#Cc1cc(C2CN([C@H]3CCN(C(=O)C=C)C3)C2)cc2c1O[C@@H](C)c1c(ncnc1N1CCS(=O)(=O)CC1)N2 [compound 194]
R: CC#CC(=O)N1CCC(N2CC(c3cc(C)c4c(c3)Nc3ncnc(N5CCS(=O)(=O)CC5)c3C(C)O4)C2)CC1 (racemic) [compound 123]
S: C=CC(=O)N1CC[C@H](N2CC(c3cc4c(c(C)n3)OCc3c(ncnc3N3CCS(=O)(=O)CC3)N4)C2)C1 (single isomer, unassigned) [compound 78]
query: Rank the 4 molecules: largest IC50 first, smallest last. Response format: the labels, sorted as the prompt asks.
result: S, P, Q, R

A: C=CC(=O)N1CC(N2CCC(c3cc4c(cn3)O[C@H](C)c3c(ncnc3N3CCOCC3)N4)CC2)C1 (single isomer, unassigned) [compound 60]
B: C=CC(=O)N1CC[C@@H](N2CC(c3cc(C)c4c(c3)Nc3ncnc(N5CCS(=O)(=O)CC5)c3CO4)C2)C1 [compound 92]
query: Consider A and B . Which of these has its IC50 at a higher number? Your choice should be expressed through its label.
result: B
(B: 427 nM, A: 257 nM)

I: CC#CC(=O)N1CC(N2CCC(c3cc(C)c4c(c3)Nc3ncnc(N5CCS(=O)(=O)CC5)c3[C@@H](C)O4)CC2)C1 [compound 157]
II: CC#CC(=O)N1CCC(C)(N2CC(c3cc(C)c4c(c3)Nc3ncnc(N5CCS(=O)(=O)CC5)c3[C@@H](C)O4)C2)C1 (mixture of isomers) [compound 147]
query: For the pair I and II , which entry has the numerically smaller recorded IC50? Answer with the label corresponding to your selection.
result: I
(I: 75.9 nM, II: 309 nM)
